test system: HCC 2998; assay: NCI tumour cell line growth inhibition, 48 h
Calls of active or inactive are those of the source. No stated cut-off is given here; in the data, active = GI50 up to about 1.1 µM and inactive = higher.
Possible outcomes: active, inactive

* CCOC(=O)C(=[N+]=[N-])C(=O)Nc1nn2nnnc2c2ccccc12 | inactive
* CCOC(=O)c1nc2cc(N3CCOCC3)c(F)cc2[nH]c1=O | inactive
* COc1ccc(-c2c(C#N)c(N)n(C3OCC(O)C(O)C3O)c(=S)c2C#N)cc1 (stereo not given) | inactive
* CCOC(=O)NNC(=O)NCc1cccc(CNC(=O)NNC(=O)OCC)c1 | inactive
* CCCCCCCC/C=C1\CCC(CN2CCOCC2)C1=O (stereo not given) | inactive
* COc1ccc2nc3cccc([N+](=O)[O-])c3c(NCCO)c2c1 | active
* COc1cc2c(c(OC)c1OC)-c1ccc(OC)c(=O)cc1[C@@H](N(C)C=O)CC2 | active
* O=C1OC[C@H]2[C@@H]1[C@H]1O[C@@H]2C2=C(CCC2)C1=O | inactive
* Cc1nc(O)nc(N/N=C/c2ccc(Cl)cc2)c1C(=O)NC(C)(CO)CO | inactive
* CN(C)CC1CCCC/C1=N/OC(=O)c1ccc(Cl)cc1 (stereo not given) | inactive

----------
Consider the following compounds and their measured GI50 readings.
system: UO-31; experiment: NCI tumour cell line growth inhibition, 48 h
Activity calls are given as the source filed them. Rule as the data show it: active = GI50 up to about 1.1 µM and inactive = higher.
value.kind: GI50

• Cc1ccc(Nc2nc(NNC(=O)Cc3ccccc3)nc(NNC(=O)c3ccncc3)n2)cc1 = 8.49 µM (inactive)
• Cc1oc2nc(N(C)C)nc(Cl)c2c1C = 26.8 µM (inactive)
• C=C1CC2(C[C@@H](c3ccccc3)O[C@@H](c3ccccc3)C2)OC1=O (stereo not given in full) = 6.24 µM (inactive)
• Cc1c(C)c2c(c(N)c1C#N)C(=O)N(NC(=S)Nc1ccccc1)C2=O = 44.4 µM (inactive)
• COc1ccc(OC)c(NCC#N)c1 = > 100 µM (inactive)
• CCOC(=O)C(N=C(c1ccccc1)c1ccccc1)N(C(=O)OC(C)(C)C)C(=O)OC(C)(C)C (stereo not given) = > 100 µM (inactive)
• CCC1CC(=O)N(SCC(N)C(=O)O)C1=O (stereo not given) = > 100 µM (inactive)
• O=C1CC2OCC=C3CN4CCC5(C(=O)O)C(N1)C2C3CC45 (stereo not given) = > 100 µM (inactive)
• CC1(C)S[C@@H]2[C@H](NC(=O)C3(N)CCCCC3)C(=O)N2[C@H]1C(=O)O = > 100 µM (inactive)
• Cc1cc(S(=O)(=O)Nc2nnc3c(Cl)cc(C(F)(F)F)cn23)c(S)cc1Cl = 30.2 µM (inactive)

----------
system: K562; experiment: NCI tumour cell line growth inhibition, 48 h
Structures can show the parent of a compound that is named as a salt. Calls of active or inactive are those of the source. Cut-off read from the data, not from the text of the source: active = GI50 up to about 1.1 µM and inactive = higher.
Consider the following compounds and their measured GI50 readings.
value.kind: GI50

* O=C1CC2(CCNCC2)C(=O)N1N1CCCCC1 | > 100 µM (inactive)
* COc1ccc(-c2nc(O)c3ccccc3n2)cc1 | > 100 µM (inactive)
* COc1ccc2c(O)c1-c1c(OC)ccc(c1O)SSc1ccc(OC)c(c1O)-c1c(OC)ccc(c1O)SS2 | 5.2 µM (inactive)
* COc1cc(OC)cc(-c2cc(=O)c3c(OC)c(OC)c(OC)c(OC)c3o2)c1 | 20.7 µM (inactive)
* CN(C)c1nc(N(C)c2ccccc2)[s+]s1 | 35.1 µM (inactive)
* C=C(COC(=O)C(C)C)[C@H]1Oc2ccc(C(C)=O)cc2[C@@H]1OC(=O)C(C)C | > 100 µM (inactive)
* N/C(=N\Nc1cccc(Cl)c1)c1cccnc1 | 4.04 µM (inactive)
* CC(=O)Nc1ccc(C(=O)NN2C(=O)C(Cl)C2c2cc(Br)cc(Br)c2O)cc1 (stereo unspecified) | > 100 µM (inactive)
* CN1CCN(c2cc3c(cc2F)c(=O)c(C(=O)O)cn3C2CC2)CC1CC#N (stereo unspecified) | > 100 µM (inactive)
* CN(C)CCOC(=O)COc1ccc(Cl)cc1 [CENTROPHENOXINE HYDROCHLORIDE] | > 100 µM (inactive)
* Nc1nc(=O)c(/N=N/c2ccc([As](=O)(O)O)cc2)c(N)[nH]1 | > 100 µM (inactive)

----------
system: HCT-116; assay: NCI tumour cell line growth inhibition, 48 h
Active and inactive are the calls of the source. Rule as the data show it: active = GI50 up to about 1.1 µM and inactive = higher.
value.kind: GI50

- Cc1ccc(Cc2n[nH]c(=O)[nH]2)cc1: > 100 µM (inactive)
- O=C1NC(=O)C2=C1CCC2O (stereo not given): > 100 µM (inactive)
- CCOC(=O)Oc1ccc2c(c1)c(=O)c1c(NCCN(CC)CC)ccc3nnn2c31: 0.405 µM (active)
- COc1cc2c(c(OC)c1OC)-c1ccc(OC)c(=O)cc1[C@@H](N(C)C=O)CC2: 0.0173 µM (active)
- O=c1oc2ccc(Cl)cc2cc1-c1cn2cc(Cl)ccc2n1: 6.3 µM (inactive)

----------
system: RXF 393; experiment: NCI tumour cell line growth inhibition, 48 h
The source made the active and inactive calls. No stated cut-off is given here; in the data, active = GI50 up to about 1.1 µM and inactive = higher.
Possible outcomes: active, inactive

• O=C(CN1c2ccccc2Sc2ccccc21)n1cnc2ccccc21 = inactive
• COC(=O)c1ccc(/N=N/N(C)CO)cc1 = inactive
• O=C1C(C(O)(C(F)(F)Cl)C(F)(F)Cl)CCCC1C(O)(C(F)(F)Cl)C(F)(F)Cl (stereo not given) = inactive
• COc1ccc2nc3cccc([N+](=O)[O-])c3c(NCCO)c2c1 = active
• CCOC(=O)/C=C/CC(C)(C)COC(C)=O = inactive
• CCC(COC(=O)CC[C@@H](NC(=O)C(C)NC(=O)C(C)OC1C(O)C(CO)OC(OCc2ccccc2)C1NC(C)=O)C(N)=O)NC1c2ccccc2Nc2cccc([N+](=O)[O-])c21 (stereo not given in full) = inactive
• Cc1ccc(NC(=O)SCCC(=O)O)cc1NC(=O)SCCC(=O)O = inactive
• C[C@@H]1[C@@H](C)C(c2ccccc2)O[Si]1(C(C)(C)C)C(C)(C)C (stereo not given in full) = inactive
• COC(=O)/C([Se]c1c(C)cc(C)cc1C)=C(/[Se]c1c(C)cc(C)cc1C)C(=O)OC = inactive
• CCOC(=O)C(=[N+]=[N-])C(=O)Nc1nn2nnnc2c2ccccc12 = inactive
• c1ccc2c(c1)-c1ccccc1C2N1CC2CCC(CC2)C1 = inactive
• CC(C)C(O)(C(=O)OCN1C(=O)C2C3C=CC(C2C1=O)C1C2C(=O)N(COC(=O)C(O)(C(C)C)C(C)O)C(=O)C2C31)C(C)O (stereo not given) = inactive
• O=C1c2ccccc2C(=O)N1CC1S(=O)(=O)OCCOS1(=O)=O = inactive
• O=C1/C(=C/c2ccccc2)CN(C(=O)Oc2ccc(Cl)cc2)C/C1=C\c1ccccc1 = inactive
• Clc1ccc(C(c2ccc(Cl)cc2)N2CCNCC2)cc1 = inactive

----------
tested on: OVCAR-4; assay: NCI tumour cell line growth inhibition, 48 h
Where a name gives a salt, the structure may show the parent alone. Activity calls are given as the source filed them. No stated cut-off is given here; in the data, active = GI50 up to about 1.1 µM and inactive = higher.
value.kind: GI50

• CCCCC#C[I+]c1ccccc1 = 14.9 µM (inactive)
• CN(C)CCOC(=O)COc1ccc(Cl)cc1 [CENTROPHENOXINE HYDROCHLORIDE] = > 100 µM (inactive)
• O=C1/C(=C/c2n[nH]cc2-c2ccc(Cl)cc2)C(=O)N(c2ccccc2)C1c1ccccc1 (stereo not given) = 25.6 µM (inactive)
• CCN(CC)C(=O)c1cc([N+](=O)[O-])c(=O)n2c1[nH]c1ccccc12 = > 100 µM (inactive)
• COc1ccc(/C=C(\C#N)c2nc(N)nc(N3N=C(C)CC3(C)C)n2)c(O)c1 = 15.8 µM (inactive)

----------
test system: RXF 393; experiment: NCI tumour cell line growth inhibition, 48 h
The source made the active and inactive calls. Cut-off read from the data, not from the text of the source: active = GI50 up to about 1.1 µM and inactive = higher.
value.kind: GI50

• c1ccc2c(c1)N=C(c1ccc3ccccc3c1)CC(c1cccc3ccccc13)S2 (stereo not drawn) = 40.4 µM (inactive)
• O=C1NC2(CCNCC2)Oc2ccccc21 = 64.1 µM (inactive)
• COc1cc(OC)c(/C=N/N=C(\N)NO)c(OC)c1 = > 100 µM (inactive)
• COc1ccc(Nc2nc3ccc(C(F)(F)F)cc3nc2C(=O)O)cc1OC = 29.6 µM (inactive)
• COc1ccc(/C=C2\CCC(CCN3CCOCC3)C2=O)cc1 (stereo not drawn) = > 100 µM (inactive)
• Nc1nc(SCC(=O)O)nc(O)c1N = > 100 µM (inactive)
• C[N+]1(C)C2Cc3ccccc3C1Cc1ccccc12 = > 100 µM (inactive)
• Cc1ccccc1NC(=O)CSc1nnc(-c2ccc(/N=C\c3ccc(Cl)cc3)cc2)o1 = > 100 µM (inactive)
• O=S(=O)(Nc1nc2ccccc2nc1Nc1ccc2ccccc2c1)c1ccccc1 = 20.4 µM (inactive)
• CCN(CCCOc1ccccc1)CCN(CC)CCCOc1ccccc1 = 13.4 µM (inactive)
• CN1CCN(C(=S)N(C(=O)c2cccs2)c2ccccc2)CC1 = > 100 µM (inactive)
• O=C1CC2(CCNCC2)C(=O)N1N1CCCCC1 = > 100 µM (inactive)
• CCOc1ccc(NC(=O)/C=C/c2ccco2)cc1 = 67.1 µM (inactive)
• CC(O)/C=C/C(CCC(C)CO)C(C)C (stereo not drawn) = > 100 µM (inactive)
• COc1ccc(NC(=O)C2C(=O)N(c3ccc(OC)cc3)C(=O)/C2=N\N)cc1 (stereo not drawn) = > 100 µM (inactive)
• N=c1c2c3n(c4c(=O)n(-c5ccccc5)c(=S)n(c(=O)n1-c1ccccc1)c24)CCCCC3 = > 75.7 µM (inactive)
• Cc1ccc(C)c(C2NC(=O)c3ccccc3N2)c1 (stereo not drawn) = 1.95 µM (inactive)
• Cc1ccc(CCCCCOc2ccc(C3=NCCO3)cc2)s1 = > 100 µM (inactive)
• CCN(CC)CCCNc1n[n+]([O-])c2ccccc2[n+]1[O-] = 13 µM (inactive)
• COC(=O)C(=O)C(C(=O)C(=O)Nc1ccc(C)c(C)c1)c1nc2ccc([N+](=O)[O-])cc2nc1O (stereo not drawn) = > 100 µM (inactive)
• CCOC(=O)C(N=C(c1ccccc1)c1ccccc1)N(C(=O)OC(C)(C)C)C(=O)OC(C)(C)C (stereo not drawn) = 19.8 µM (inactive)
• N#C/C(=C\c1ccccc1)C(=O)Nc1nnc(-c2ccccc2)o1 = 34 µM (inactive)
• CCN(CC)C(=O)c1cc([N+](=O)[O-])c(=O)n2c1[nH]c1ccccc12 = > 100 µM (inactive)
